assayed-target: HLA-B*51:01 (human)
assay-text: radioligand competition, purified MHC
test-parameters: remark: other sources report otherwise
Item-by-item account of IC50

binder: FGDDTVIEV (modifications not checked) [… (SEQ ID NO: 23)]
readout-units: µM
IC50: 45.7
//
binder: KRVDWTIEY (modifications not checked) [… (SEQ ID NO: 29)]
readout-units: µM
IC50: 22.7

// provenance: patent US20220088180A1
